- target: CK1δ (Homo sapiens)
- Sequence (P48730 whole entry): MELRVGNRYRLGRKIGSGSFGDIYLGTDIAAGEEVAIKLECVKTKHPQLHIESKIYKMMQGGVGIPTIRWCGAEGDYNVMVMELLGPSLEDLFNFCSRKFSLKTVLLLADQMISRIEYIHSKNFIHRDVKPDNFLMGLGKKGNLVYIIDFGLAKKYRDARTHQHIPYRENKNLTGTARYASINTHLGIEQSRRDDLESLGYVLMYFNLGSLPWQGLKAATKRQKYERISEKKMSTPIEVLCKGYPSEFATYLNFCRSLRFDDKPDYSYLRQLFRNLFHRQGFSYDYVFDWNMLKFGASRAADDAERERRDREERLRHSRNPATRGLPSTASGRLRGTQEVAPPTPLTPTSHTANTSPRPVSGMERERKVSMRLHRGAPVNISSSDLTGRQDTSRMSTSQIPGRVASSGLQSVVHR
- assay_notes: In vitro kinase assay, CK1d, 32P-ATP filter binding (Reaction Biology Corporation)
- Format: biochemical
- experimental_context: footnote a: determined by Reaction Biology Corporation; read-out: IC50 CK1d
readout_label: pIC50
Give bare numbers, as −log10 of the molar value.

N#Cc1ccc2[nH]c(CNc3nc(N4CCOCC4)nc4c3ncn4-c3ccsc3)nc2c1 [SR-1276] = 7.96
O=[N+]([O-])c1ccc2[nH]c(CNc3nc(N4CCOCC4)nc4c3ncn4-c3ccsc3)nc2c1 [SR-1278] = 7.68
COc1ccc2[nH]c(CNc3nc(N4CCN(C)CC4)nc4c3ncn4-c3ccoc3)nc2c1 [SR-2848] = 7.54

Turning now to a further compound:
Query: Please report the recorded pIC50 for CN1CCN(c2nc(NCc3nc4ccccc4[nH]3)c3ncn(-c4ccsc4)c3n2)CC1 [SR-1294] .
Response: 7.96
